- measured target: Aurora kinase A (Homo sapiens, UniProt O14965)
- Sequence (O14965 whole entry): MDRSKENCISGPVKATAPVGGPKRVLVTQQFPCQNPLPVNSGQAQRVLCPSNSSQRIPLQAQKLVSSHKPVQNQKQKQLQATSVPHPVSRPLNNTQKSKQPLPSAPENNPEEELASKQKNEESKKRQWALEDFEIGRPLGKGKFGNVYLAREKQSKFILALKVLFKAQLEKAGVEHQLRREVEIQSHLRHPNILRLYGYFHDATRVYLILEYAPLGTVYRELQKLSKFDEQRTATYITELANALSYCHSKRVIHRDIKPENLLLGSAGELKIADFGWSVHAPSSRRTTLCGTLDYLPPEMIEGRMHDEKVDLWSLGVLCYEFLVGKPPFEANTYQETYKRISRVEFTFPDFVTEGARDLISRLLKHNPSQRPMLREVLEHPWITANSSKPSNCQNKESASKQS
pIC50: −log10 of the molar value.
reported endpoint: pIC50

Task: Recorded pIC50 of C[C@H]1CC(=O)Nc2cc(C(=O)NCCC3CC3)ccc2N1C(=O)N1CC2CC2C1 (stereo partly specified) , please.
Output: < 4.70

* * *

- measured target: Histone-lysine N-methyltransferase SMYD3 (Homo sapiens)
- Sequence (whole entry): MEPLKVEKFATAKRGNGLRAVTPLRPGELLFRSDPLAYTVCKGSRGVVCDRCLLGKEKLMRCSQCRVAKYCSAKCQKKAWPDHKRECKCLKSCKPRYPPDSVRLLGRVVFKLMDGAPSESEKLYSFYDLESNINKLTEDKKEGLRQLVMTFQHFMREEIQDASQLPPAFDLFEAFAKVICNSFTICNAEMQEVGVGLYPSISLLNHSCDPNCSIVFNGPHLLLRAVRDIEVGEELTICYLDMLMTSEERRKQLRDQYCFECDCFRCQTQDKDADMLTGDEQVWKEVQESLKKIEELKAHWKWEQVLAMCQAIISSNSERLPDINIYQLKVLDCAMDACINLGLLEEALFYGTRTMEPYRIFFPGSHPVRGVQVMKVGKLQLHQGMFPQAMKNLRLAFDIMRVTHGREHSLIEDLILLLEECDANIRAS
- conditions: dose 120.0 µM
- Description: Binding affinity to recombinant human SMYD3 expressed in Escherichia coli assessed as change in melting temperature at 120 uM by SYPRO Orange staining based thermal shift assay
reported endpoint: deltaTm (K)
Answers are plain numbers, in K.

Example molecules with recorded deltaTm:
molecule	deltaTm [K]
CC1CC(=O)Nc2cc(C(=O)NCCC3CC3)ccc2N1C(=O)c1ccccc1 (racemic)	3.9
C[C@H]1CC(=O)Nc2cc(C(=O)NCCC3CC3)ccc2N1C(=O)N(C)C1CCN(CC(F)(F)F)CC1	3.34
CCN1CCC(N(C)C(=O)N2c3ccc(C(=O)NCCC4CC4)cc3NC(=O)C[C@@H]2C)CC1	8.2
CC1CC(=O)Nc2cc(C(=O)NCCC3CCC3)ccc2N1C(=O)c1ccccc1 (racemic)	4.77
C[C@H]1CC(=O)Nc2cc(C(=O)NCCC3CC3)ccc2N1C(=O)N1CC[C@@H](N)C1.Cl	5.91
CCN1CCN(C(=O)N2c3ccc(C(=O)NCCC4CC4)cc3NC(=O)C[C@@H]2C)CC1	7.34
C[C@H]1CC(=O)Nc2cc(C(=O)N(C)CCC3CC3)ccc2N1C(=O)N1CC2CC2C1 (some centres undefined)	3.9
C[C@H]1CC(=O)Nc2cc(C(=O)NCCC3CC3)ccc2N1C(=O)N1CC[C@H](N)C1.Cl	7.56

In the following, a different molecule is considered.
Task: Observed deltaTm on Histone-lysine N-methyltransferase SMYD3 (Homo sapiens) for `C[C@H]1CC(=O)Nc2cc(C(=O)NCCC3CC3)ccc2N1C(=O)N1CCC(NCC(F)(F)F)CC1` , please.
Output: 5.63
